- TEST SYSTEM: Fuc(a1-3)[Gal(b1-4)]GlcNAc(b1-3)Gal(b1-4)[Fuc(a1-3)]GlcNAc
- TEST METHOD NOTES: glycan array binding signal (z-score within array); higher = stronger binding
- CONDITION PARAMETERS: glycan notation: IUPAC condensed, linker removed
The sample as a whole holds a higher share of the strongest signals than the screen did.
EXPERIMENTAL READOUT: glycan array binding signal (z-score)
Just the number, please, no unit after it.

Tamarinin (protein) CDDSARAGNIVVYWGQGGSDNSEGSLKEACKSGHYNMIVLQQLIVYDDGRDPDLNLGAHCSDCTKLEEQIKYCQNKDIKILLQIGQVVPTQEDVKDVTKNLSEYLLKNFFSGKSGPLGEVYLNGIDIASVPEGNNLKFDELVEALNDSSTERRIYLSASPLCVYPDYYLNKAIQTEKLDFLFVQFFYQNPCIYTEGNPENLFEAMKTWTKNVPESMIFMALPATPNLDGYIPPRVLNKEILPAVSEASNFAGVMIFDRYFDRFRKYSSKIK	0.223

Entry OrysaEULS2 (Oryza sativa) (protein) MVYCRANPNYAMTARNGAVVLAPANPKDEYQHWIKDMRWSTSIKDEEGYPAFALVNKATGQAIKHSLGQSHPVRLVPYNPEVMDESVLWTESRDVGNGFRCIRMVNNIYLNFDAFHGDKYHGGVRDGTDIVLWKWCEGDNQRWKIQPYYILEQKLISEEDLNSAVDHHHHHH has what glycan array binding signal (z-score)?
-0.27

Entry WGA (Triticum vulgare) (protein) QRCGEQGSNMECPNNLCCSQYGYCGMGGDYCGKGCQNGACWTSKRCGSQAGGATCPNNHCCSQYGHCGFGAEYCGAGCQGGPCRADIKCGSQSGGKLCPNNLCCSQWGFCGLGSEFCGGGCQSGACSTDKPCGKDAGGRVCTNNYCCSKWGSCGIGPGYCGAGCQSGGCDAVFAGAITANSTLLAE has what glycan array binding signal (z-score)?
-0.381
